Origin of the recorded values: patent US20260258048A1

# TESTED_ON: IL-17A(FLAG-tagged): IL-17RA(His-tagged) (Homo sapiens, UniProt Q16552, K93Q)
# Sequence (Q16552 with tags, fused parts or gaps K93Q): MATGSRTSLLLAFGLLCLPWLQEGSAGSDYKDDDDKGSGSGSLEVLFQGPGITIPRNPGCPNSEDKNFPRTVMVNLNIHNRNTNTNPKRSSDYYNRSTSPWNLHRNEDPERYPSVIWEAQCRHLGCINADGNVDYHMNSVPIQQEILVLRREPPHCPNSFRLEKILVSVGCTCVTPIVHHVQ
# TEST_METHOD_NOTES: IL-17A(FLAG-tagged): IL-17RA(His-tagged) binding disruption Eu-HTRF assay
# CONDITION_SET: class of the average IC50 where tested more than once
pIC50: −log10 of the molar value.
// reported pIC50 for each item listed

Recorded pIC50, per entry:
{"columns": ["COMPOUND", "REPORTED_MEASUREMENT"],
 "data": [
  ["C[C@H]1C[C@@H](Cc2cnn3cc([C@@H](NC(=O)c4nonc4C4CC4)C4CCC(F)(F)CC4)nc3c2)C(=O)N1 (relative stereo)", "5.40 to 6.40"],
  ["CC(C)(CC[C@H](NC(=O)c1nonc1C1CC1)c1cn2ncc(CC3C[C@@](C)(C(F)(F)F)NC3=O)cc2n1)C(F)(F)F (single isomer, unassigned)", "> 6.40"],
  ["CC1(Cc2cnn3cc([C@@H](NC(=O)c4nonc4C4CC4)C4CCC(F)(F)CC4)nc3c2)CCCNC1=O (single isomer, unassigned) [Example 28]", "> 6.40"],
  ["Cc1nonc1C(=O)N[C@H](c1cn2ncc(CC3(CN(C)C)C[C@@H](C(F)(F)F)NC3=O)cc2n1)C1CCC(F)(F)CC1 (single isomer, unassigned)", "> 6.40"],
  ["COc1nonc1C(=O)N[C@H](c1cn2ncc(CC3C[C@@H](C(F)(F)F)NC3=O)cc2n1)C1CCC(F)(F)CC1 (single isomer, unassigned) [Example 7]", "> 6.40"],
  ["O=C(N[C@H](c1cn2ncc(C(O)C3CC(C(F)(F)F)NC3=O)cc2n1)C1CCC(F)(F)CC1)c1nonc1C1CC1 (stereo partly shown)", "5.40 to 6.40"]
]}

The compound identified as CC(C)(CC[C@H](NC(=O)c1nonc1C1CC1)c1cn2ncc([C@H](O)[C@H]3C[C@@H](C(F)(F)F)NC3=O)cc2n1)C(F)(F)F (relative stereo) registered its pIC50 at > 6.40

Item: C[C@]1(Cc2cnn3cc([C@@H](NC(=O)c4nonc4C4CC4)C4CCC(F)(F)CC4)nc3c2)C[C@@H](C(F)(F)F)NC1=O (single isomer, unassigned) | pIC50: > 6.40

For reference, reported pIC50 for C[C@@H]1C[C@H](Cc2cnn3cc([C@@H](NC(=O)c4nonc4C4CC4)C4CCC(F)(F)CC4)nc3c2)C(=O)N1 (relative stereo) stands at 5.40 to 6.40

Lab book: pIC50 of COc1nonc1C(=O)N[C@@H](CCC(C)(C)C(F)(F)F)c1cn2ncc(CC3C[C@@H](C(F)(F)F)NC3=O)cc2n1 (single isomer, unassigned) [Example 5] noted as < 5.40

// pIC50 value for O=C(N[C@H](c1cn2ncc([C@@H]3C[C@]34C[C@@H](C(F)(F)F)NC4=O)cc2n1)C1CCC(F)(F)CC1)c1nonc1C1CC1 (relative stereo) : < 5.40

Kindly note the recorded pIC50 for O=C(N[C@H](c1cn2ncc([C@@H](O)[C@H]3C[C@@H](C(F)(F)F)NC3=O)cc2n1)C1CCC(F)(F)CC1)c1nonc1C1CC1 (relative stereo) [Example 73] , which is 5.40 to 6.40

Just so you know, measured pIC50 for C[C@H]1CNC(=O)[C@H]1Cc1cnn2cc([C@@H](NC(=O)c3nonc3C3CC3)C3CCC(F)(F)CC3)nc2c1 (relative stereo) came out at 5.40 to 6.40

// pIC50 lookup, compound = CC[C@H]1C[C@@H](Cc2cnn3cc([C@@H](NC(=O)c4nonc4C4CC4)C4CCC(F)(F)CC4)nc3c2)C(=O)N1 (relative stereo) , result: < 5.40

# pIC50 (compound: O=C(N[C@H](c1cn2ncc(CC3CC4(COC4)NC3=O)cc2n1)C1CCC(F)(F)CC1)c1nonc1C1CC1 (stereo partly shown) ) is < 5.40

// O=C(N[C@H](c1cn2ncc(C[C@@H]3C(=O)NCC[C@@H]3C(F)(F)F)cc2n1)C1CCC(F)(F)CC1)c1nonc1C1CC1 (relative stereo) : pIC50 value = 5.40 to 6.40

Form field pIC50, entry O=C(N[C@H](c1cn2ncc(C[C@H]3C(=O)NCC[C@H]3C(F)(F)F)cc2n1)C1CCC(F)(F)CC1)c1nonc1C1CC1 (relative stereo) : 5.40 to 6.40

// recorded pIC50 for O=C(N[C@H](c1cn2ncc(C[C@]34CCC[C@@H](C3)NC4=O)cc2n1)C1CCC(F)(F)CC1)c1nonc1C1CC1 (relative stereo) : < 5.40

Lab note: measured pIC50 of CC1(Cc2cnn3cc([C@@H](NC(=O)c4nonc4C4CC4)C4CCC(F)(F)CC4)nc3c2)CCCNC1=O (single isomer, unassigned) [Example 27] was 5.40 to 6.40

Record CC(C)[C@@H]1C[C@H](Cc2cnn3cc([C@@H](NC(=O)c4nonc4C4CC4)C4CCC(F)(F)CC4)nc3c2)C(=O)N1 (relative stereo) . Reported pIC50: < 5.40

Reported pIC50 ( CC1(Cc2cnn3cc([C@@H](NC(=O)c4nonc4C4CC4)C4CCC(F)(F)CC4)nc3c2)CCNC1=O (single isomer, unassigned) [Example 53] ) = 5.40 to 6.40

Entry C[C@@H](c1cnn2cc([C@@H](NC(=O)c3nonc3C3CC3)C3CCC(F)(F)CC3)nc2c1)[C@H]1C[C@@H](C(F)(F)F)NC1=O (relative stereo) ; pIC50 = < 5.40

----------
# TESTED_ON: IL-17A(FLAG-tagged): IL-17RA(His-tagged) (Homo sapiens, UniProt Q16552, K93Q)
# TEST_METHOD_NOTES: IL-17A(FLAG-tagged): IL-17RA(His-tagged) binding disruption Eu-HTRF assay
# CONDITION_SET: class of the average IC50 where tested more than once
pIC50: −log10 of the molar value.
Listing of entries alongside the reported pIC50.

Sample answers from the record:
{"columns": ["COMPOUND", "RESULT_TYPE", "REPORTED_MEASUREMENT"],
 "data": [
  ["O=C(N[C@H](c1cn2ncc(CC3CCNC3=O)cc2n1)C1CCC(F)(F)CC1)c1nonc1C1CC1 (single isomer, unassigned) [Example 21]", "pIC50", "5.40 to 6.40"],
  ["Cc1nonc1C(=O)N[C@H](c1cn2ncc(C[C@H]3CC[C@@H](C(F)(F)F)NC3=O)cc2n1)C1CCC(F)(F)CC1 (relative stereo)", "pIC50", "> 6.40"],
  ["CC[C@@H](c1cnn2cc([C@@H](NC(=O)c3nonc3C3CC3)C3CCC(F)(F)CC3)nc2c1)[C@@H]1C[C@@H](C(F)(F)F)NC1=O (relative stereo) [Example 20]", "pIC50", "5.40 to 6.40"],
  ["O=C(N[C@H](c1cn2ncc([C@H]3C[C@@]34C[C@@H](C(F)(F)F)NC4=O)cc2n1)C1CCC(F)(F)CC1)c1nonc1C1CC1 (relative stereo)", "pIC50", "< 5.40"],
  ["CC1(C)C[C@H](Cc2cnn3cc([C@@H](NC(=O)c4nonc4C4CC4)C4CCC(F)(F)CC4)nc3c2)C(=O)N1 (single isomer, unassigned)", "pIC50", "< 5.40"],
  ["O=C(N[C@H](c1cn2ncc(C[C@]34CC[C@@H](C3)NC4=O)cc2n1)C1CCC(F)(F)CC1)c1nonc1C1CC1 (single isomer, unassigned)", "pIC50", "5.40 to 6.40"]
]}

Looking up "O=C(N[C@H](c1cn2ncc(C[C@@]3(O)C[C@@H](C(F)(F)F)NC3=O)cc2n1)C1CCC(F)(F)CC1)c1nonc1C1CC1" , I found its pIC50 recorded as > 6.40

pIC50 measured on O=C(N[C@H](c1cn2ncc(C[C@@H]3C[C@@H](C(F)(F)F)NC3=O)cc2n1)C1CCC(F)(F)CC1)c1nonc1C1CC1 (relative stereo) [Example 70] = > 6.40

Per the records, this compound ( CC(C)[C@@H]1C[C@@H](Cc2cnn3cc([C@@H](NC(=O)c4nonc4C4CC4)C4CCC(F)(F)CC4)nc3c2)C(=O)N1 (relative stereo) ) has pIC50 equal to 5.40 to 6.40

Memo: C[C@@]1(C(F)(F)F)CC(Cc2cnn3cc([C@@H](NC(=O)c4nonc4C4CC4)C4CCC(F)(F)CC4)nc3c2)C(=O)N1 (single isomer, unassigned) , reported pIC50: 5.40 to 6.40

# pIC50 of CC1(C)CNC(=O)C1Cc1cnn2cc([C@@H](NC(=O)c3nonc3C3CC3)C3CCC(F)(F)CC3)nc2c1 (single isomer, unassigned) [Example 16] = 5.40 to 6.40

----------
# TESTED_ON: IL-17A(FLAG-tagged): IL-17RA(His-tagged) (Homo sapiens, UniProt Q16552, K93Q)
# TEST_METHOD_NOTES: IL-17A(FLAG-tagged): IL-17RA(His-tagged) binding disruption Eu-HTRF assay
# CONDITION_SET: class of the average IC50 where tested more than once
This listing pairs compounds with measured IC50.

Below: 4 compounds and their reported IC50.
{"columns": ["COMPOUND", "TESTED_ON", "IC50"],
 "data": [
  ["O=C(N[C@H](c1cn2ncc([C@@H]3C[C@@]34C[C@@H](C(F)(F)F)NC4=O)cc2n1)C1CCC(F)(F)CC1)c1nonc1C1CC1 (relative stereo)", "IL-17A(FLAG-tagged): IL-17RA(His-tagged) (Homo sapiens, UniProt Q16552, K93Q)", "< 400 nM"],
  ["COc1nonc1C(=O)N[C@H](c1cn2ncc(CC3C[C@@H](C(F)(F)F)NC3=O)cc2n1)C1CCC(F)(F)CC1 (single isomer, unassigned) [Example 8]", "IL-17A(FLAG-tagged): IL-17RA(His-tagged) (Homo sapiens, UniProt Q16552, K93Q)", "> 4000 nM"],
  ["Cc1nonc1C(=O)N[C@H](c1cn2ncc(CC3(CC#N)C[C@@H](C(F)(F)F)NC3=O)cc2n1)C1CCC(F)(F)CC1 (single isomer, unassigned)", "IL-17A(FLAG-tagged): IL-17RA(His-tagged) (Homo sapiens, UniProt Q16552, K93Q)", "< 400 nM"],
  ["N#CCC1(Cc2cnn3cc([C@@H](NC(=O)c4nonc4C4CC4)C4CCC(F)(F)CC4)nc3c2)C[C@@H](C(F)(F)F)NC1=O (single isomer, unassigned)", "IL-17A(FLAG-tagged): IL-17RA(His-tagged) (Homo sapiens, UniProt Q16552, K93Q)", "< 400 nM"]
]}

The compound listed as CC[C@@H](c1cnn2cc([C@@H](NC(=O)c3nonc3C3CC3)C3CCC(F)(F)CC3)nc2c1)[C@@H]1C[C@@H](C(F)(F)F)NC1=O (single isomer, unassigned) [Example 19] shows IC50 equal to < 400 nM
